Taken from patent US9028806B2.

- method description: Exploratory Pk on rats, oral route (bioavailability)
- conditions: rat, in vivo, po, 2 mg/kg
measure: half-life (h)
Give the quantity in h, number only.

State the recorded half-life for this entry: `CC[C@]12C=CCN3CC[C@@]4(c5cc([C@@]6(C(=O)OC)C[C@@H]7C[C@@H](C(C)(F)F)CN(Cc8c6[nH]c6ccccc86)C7)c(OC)cc5N(C)[C@H]4[C@@](O)(C(=O)OC)[C@@H]1OC(C)=O)[C@@H]32`
7.9
